assay.overview: PSAC antagonists in infected red cells, primary screen, cell-based, P. falciparum Indochina, OD700, 18 h (AID 1157)
stated.conditions: P. falciparum Indochina infected erythrocytes, osmotic lysis OD700, 18 h; higher = more signal, called active from +8 up or from −8 down
value.kind: z-score
Please reply with the value in numeric form only.

These recorded examples may help you get a feel for the data.
molecule=COC(=O)CC=C1c2ccccc2[C@H](OC)[C@H]1C experimental_result=-0.0463
molecule=CCCNC(=O)OC[C@H]1O[C@H](CCON=C[C@@H](C)[C@H](OCc2ccccc2)C(C)C)C=C[C@@H]1Oc1ccc(OC)cc1 experimental_result=-2.55
molecule=CO[C@H]1COC(=O)CCC[C@H](C)[C@H](OC)COC(=O)CC=C[C@@H]1C experimental_result=-1.45
molecule=CCN1C(=O)[C@H]2[C@H]3[C@H](O)[C@H](O)CC(=NOCC=C(C)CCC=C(C)C)[C@@H]3CC[C@H]2C1=O experimental_result=0.134
molecule="CCOC(=O)[C@H](Cc1ccccc1)NC(=O)CCC1CC(OC(=O)NCc2ccc3c(c2)OCO3)CC2(CCCC(COC(=O)NCCc3ccc(Cl)cc3)O2)O1 (some centres not stated)" experimental_result=-0.741

Query block: Fill in: z-score of "C[C@H]1C=CCC(=O)OC[C@H](C)C(=O)N2CCC[C@H]2C(=O)OC1" is ___
Result block: 0.0217

Query block: Fill in: z-score of "CCN1C(C)=C(C(=O)OC)[C@@H](c2ccccc2)N2C(=O)[C@](O)(C(=O)OC)CC(C(C)=O)=C12" is ___
Result block: 0.195

Query block: Fill in: z-score of "CC(C)=CCCC(C)=CCON=C1C[C@@H](O)[C@@H](O)[C@@H]2[C@@H]3C(=O)N([C@@H](C)c4ccccc4)C(=O)[C@@H]3CC[C@@H]12" is ___
Result block: 0.183

Query block: Fill in: z-score of C=CCOCC1CN2[C@@H](CC[C@@H](C)[C@@H]2c2ccc(Br)cc2)C(=O)O1 (some centres not stated) is ___
Result block: 0.247
